Each entry below carries its reported self-cleavage kobs at 2500 uM GlcN6P.
B1: glmS ribozyme (parent)
chain: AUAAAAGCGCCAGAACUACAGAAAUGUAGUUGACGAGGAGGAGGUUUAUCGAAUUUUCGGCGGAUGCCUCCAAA

- Variants of: B1
- protocol_text: self-cleavage kobs at 2500 uM GlcN6P; higher = faster cleavage; RNA array
- test_context: with glucosamine-6-phosphate
Fewer inactive variants are shown than the library holds.
# number only, unit s⁻¹ dropped from output

A selection of reference data follows.
construct_sequence	self-cleavage kobs at 2500 uM GlcN6P, s⁻¹
AUAAAAGCGCCAGAACUACAGAAAUGUAGUUGACGAGGAGGAGGUUUAUCGAAUUAUCGGCGGAUGCCUACAAA [U56A C70A]	0.000153
AUAAAAGCGCCAGAACUACAGAAAUGUAGUUGACGAGGAGGAGGUUUAUCGAAUUUUCGGCGGAUGCCUCGAAA [C71G]	0.00218
AUAAAAGCGCCAGAACUACAGAAAUGUACUUCACGAGGAGGAGGUUUAUCGAAUUUUCGGCGGAUGCCUCCAAA [G29C G32C]	2.89e-05
AUAAAAGCGCCAGAACUACAGAAAUGUAGUUGACGAGGAGGAGGUUUAUCGAAUAUUCGGCGGAUGCCUACAAA [U55A C70A]	0.000155

--- query ---
Provide self-cleavage kobs at 2500 uM GlcN6P value for the following variant: AUAAAAGCGCCAGAACUACAGAAAUGUAGUUAACGAGGAGGAGGUUUAUCGAAUUUUUGGCGGAUGCGUCCAAA [G32A C58U C68G]
0.000103
